The label is Criterion met for melting point below 200 °C and Criterion not met for melting point equal to or exceeding 200 °C.

[
  {
    "Compound": "COCC1CN(c2ccc(C(F)(F)F)cc2)C(=O)c2c(NC(=O)c3ccc(N)nc3)cnn21 (single isomer, unassigned) [Co. No. 95]",
    "Answer Label": "Criterion not met"
  }
]

Now for another entry.
(Q) Could you please tell me whether melting point recorded for COc1nc(N2C[C@H](C)n3ncc(NC(=O)c4ccccc4)c3C2=O)ccc1Cl is less than 200 °C?
(A) Criterion met

---

Target: human mGlu2 receptor (Homo sapiens, UniProt Q14416)
Construct: expressed in transfected cells; host or cells: CHO cells
Sequence (Q14416 19-872): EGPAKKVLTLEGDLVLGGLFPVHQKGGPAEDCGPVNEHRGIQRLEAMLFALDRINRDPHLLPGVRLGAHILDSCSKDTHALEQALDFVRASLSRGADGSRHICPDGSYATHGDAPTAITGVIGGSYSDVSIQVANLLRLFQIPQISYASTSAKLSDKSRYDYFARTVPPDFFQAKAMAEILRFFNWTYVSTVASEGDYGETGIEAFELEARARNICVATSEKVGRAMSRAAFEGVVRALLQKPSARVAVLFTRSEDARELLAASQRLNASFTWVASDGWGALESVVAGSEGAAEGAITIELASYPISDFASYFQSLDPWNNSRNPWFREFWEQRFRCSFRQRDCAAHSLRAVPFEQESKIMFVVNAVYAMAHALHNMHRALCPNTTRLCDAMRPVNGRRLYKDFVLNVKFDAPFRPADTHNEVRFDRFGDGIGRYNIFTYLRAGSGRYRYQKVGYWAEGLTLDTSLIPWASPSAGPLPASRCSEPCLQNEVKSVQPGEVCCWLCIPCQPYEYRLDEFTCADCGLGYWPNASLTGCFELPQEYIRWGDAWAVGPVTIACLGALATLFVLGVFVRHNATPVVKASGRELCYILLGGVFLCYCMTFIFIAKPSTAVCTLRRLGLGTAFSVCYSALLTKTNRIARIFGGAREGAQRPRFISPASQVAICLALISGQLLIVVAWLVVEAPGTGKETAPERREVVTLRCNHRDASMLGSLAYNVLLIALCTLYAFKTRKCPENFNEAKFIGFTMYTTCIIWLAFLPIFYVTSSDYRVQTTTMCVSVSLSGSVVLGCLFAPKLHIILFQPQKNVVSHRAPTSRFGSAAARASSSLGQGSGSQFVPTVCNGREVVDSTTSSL
Test: [35S]GTPγS binding assay (mGluR2 negative allosteric modulation, glutamate ~EC80 60 μM)
Assay type: biochemical
Details: membranes from CHO cells transfected with human mGlu2 receptor; glutamate ~EC80 (60 μM); pIC50 = −log IC50 (M); read-out: GTPγS-hmGluR2 anGT pIC50 (converted)
Protocol: 1) [^35S]GTPγS Binding Assay [^35S]GTPγS Binding Assay Total reaction volume was 200 μl. […] Membrane-bound radioactivity was counted in a Topcount.
As shown below, each of these molecules has a reported IC50 value.
Numbers only; they are read as M.

Guide cases for IC50, answers given:
[
  {
    "Molecule": "Cc1cc(C(=O)Nc2cnn3c2C(=O)N(c2ccc(Cl)cc2)C[C@@H]3C)cc(N)n1 [Co. No. 203]",
    "Assayed Target": "human mGlu2 receptor (Homo sapiens, UniProt Q14416)",
    "Unit Abbrev": "M",
    "IC50": "1.12e-08"
  },
  {
    "Molecule": "COCc1cc(N2C[C@H](C)n3ncc(NC(=O)c4ccc(N)nc4)c3C2=O)ccc1C(F)(F)F [Co. No. 22]",
    "Assayed Target": "human mGlu2 receptor (Homo sapiens, UniProt Q14416)",
    "Unit Abbrev": "M",
    "IC50": "4.79e-09"
  }
]

(Q) Need IC50, item COc1cc(N2C[C@H](C)n3ncc(NC(=O)c4cccnc4)c3C2=O)ccc1C(F)(F)F [Co. No. 147]
(A) 1.07e-08

(Q) Need IC50, item C[C@H]1CN(c2ccc(OC(F)(F)F)cc2)C(=O)c2c(NC(=O)c3cccnc3N)cnn21 [Co. No. 196]
(A) 2.63e-09

(Q) Need IC50, item Cc1cc(C(=O)Nc2cnn3c2C(=O)N(c2ccc(C(F)(F)F)c(Cl)c2)C[C@@H]3C)cnc1NC(C)(C)C [Co. No. 168]
(A) 2.88e-08

(Q) Need IC50, item COc1ccnc(C(=O)Nc2cnn3c2C(=O)N(c2ccc(C(F)(F)F)cc2)C[C@@H]3C)c1 [Co. No. 60]
(A) 2.45e-08

(Q) Need IC50, item Cc1cc(C(=O)Nc2cnn3c2C(=O)N(c2ccc(C(F)(F)F)cc2)C[C@@H]3C)cc(C)n1 [Co. No. 93]
(A) 2.75e-09

Reference source: patent US10519162B2
